human RIP1 kinase domain (2-375) (Homo sapiens, UniProt Q13546) measurements of Ki, listed per entry.
Sequence (Q13546 2-375): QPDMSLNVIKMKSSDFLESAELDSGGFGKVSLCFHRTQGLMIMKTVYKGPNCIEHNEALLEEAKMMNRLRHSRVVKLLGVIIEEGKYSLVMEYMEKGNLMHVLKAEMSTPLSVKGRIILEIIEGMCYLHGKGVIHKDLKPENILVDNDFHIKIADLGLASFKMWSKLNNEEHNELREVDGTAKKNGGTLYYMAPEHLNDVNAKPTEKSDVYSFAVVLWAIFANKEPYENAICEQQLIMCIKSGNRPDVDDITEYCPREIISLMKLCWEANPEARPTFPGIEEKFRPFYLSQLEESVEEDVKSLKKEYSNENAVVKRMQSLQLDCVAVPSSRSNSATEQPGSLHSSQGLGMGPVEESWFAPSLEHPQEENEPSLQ
Dear colleague, please return just the value in µM, with no unit written.

# compound, measured.parameter, endpoint.value
records = [
    ("CN1C(=O)[C@@H](NC(=O)c2ncc3cnn(C4CCCC4)c3n2)COc2cccnc21", "Ki", 0.011),
]

Consider the compound shown here: CN1C(=O)[C@@H](NC(=O)c2cc3n(n2)[C@@H](c2ccccc2)C[C@H]3F)COc2ccccc21 (single isomer, unassigned) What is its recorded Ki?
5.4

Consider the compound shown here: "CC(C)n1ncc2cnc(C(=O)N[C@H]3COc4cccnc4N(C)C3=O)nc21" What is its recorded Ki?
0.014

Consider the compound shown here: CN1C(=O)[C@@H](NC(=O)c2cc3n(n2)CCO[C@@H]3c2ccccc2F)COc2cccnc21 (single isomer, unassigned) What is its recorded Ki?
0.95

Consider the compound shown here: "CCC(F)(F)n1ncc2cnc(C(=O)N[C@H]3COc4cccnc4N(C)C3=O)nc21" What is its recorded Ki?
0.018

Consider the compound shown here: CN1C(=O)[C@@H](NC(=O)c2cc3n(n2)[C@H](c2ccccc2)C[C@@H]3F)COc2cccnc21 (single isomer, unassigned) What is its recorded Ki?
0.0052

Consider the compound shown here: "CCC(F)(F)n1ncc2cnc(C(=O)N[C@H]3COc4cccnc4N(C)C3=O)cc21" What is its recorded Ki?
0.005

src = patent US11634436B2
